The reported measurements were obtained from PubChem BioAssay AID1845204.

test system: HSSY-II tumor spheroid viability; assay: Anticancer human tumor HSSY-II cell line growth inhibition; conditions: second compound 1 µM; first compound 0.0316 µM; hits give low values; spheroids with HUVEC and MSC;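 also: spheroids exposed to compounds for seven days before reading; percent of DMSO vehicle control viability so 100% = untreated level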
measured-property: viability, T/C (%)
Return type: number; implicit unit %.

COc1cc(C)[nH]c(=O)c1CN1CCc2c(Cl)cc(C(OC)C3COC3)c(Cl)c2C1=O (stereo unspecified) + Cn1nnc2c(C(N)=O)ncn2c1=O :: 96.7
[2H]c1nc(C)nc([2H])c1-c1cc(NC[C@@H](C)c2cccc3c(C(=O)NC)ccnc23)ncn1 + Cn1nnc2c(C(N)=O)ncn2c1=O :: 103
Cc1cc(C)c(CNC(=O)c2cc(-c3ccc(CN4CCOCC4)cc3)cc3c2cnn3C2CCCC2)c(=O)[nH]1 + Cn1nnc2c(C(N)=O)ncn2c1=O :: 98.4
COc1ccc([C@@H](O)c2cc(-c3ncnc4cc(N5CCOCC5)ccc34)c(F)cc2Cl)nn1 + Cn1nnc2c(C(N)=O)ncn2c1=O :: 102

query: Observed viability, T/C on HSSY-II tumor spheroid viability for CC1COCCN1c1cc(-c2ccnn2C)c2ccnc(-c3ccn[nH]3)c2n1 (stereo unspecified) + Cn1nnc2c(C(N)=O)ncn2c1=O , please.
result: 29

query: Same question for CC(C)n1c(=O)n(C)c2cnc3cc(F)c(-c4ccc(OCCCN5CCCCC5)nc4)cc3c21 + Cn1nnc2c(C(N)=O)ncn2c1=O please.
result: 100
